test system: nude mice, HT29 intrarenal xenograft, tumor weight T/C; test: NCI In Vivo Anticancer Drug Screen. Data for tumor model HT29;CX-1 Human Adenocarcinoma (MER+) (intrarenal inoculation) in NU/NU Swiss (nude) mice; conditions: endpoint: mean tumor weight change; dose: 0.25 mg/kg/injection; schedule: Q01DX010 (sc); vehicle: saline; higher = larger tumour
Records with an inconclusive call do not appear.
observable: T/C

INSERT INTO measurements (molecule, data_value) VALUES
  ('CC[C@]1(O)C[C@H]2CN(CCc3c([nH]c4ccccc34)[C@@](C(=O)OC)(c3cc4c(cc3OC)N(C)[C@H]3[C@@](O)(C(=O)OC)[C@H](OC(C)=O)[C@]5(CC)C=CCN6CC[C@]43[C@@H]65)C2)C1', '76 % of control');

Dear colleague, please send me the reported T/C for C1CN1c1nc(N2CC2)nc(N2CC2)n1 when you can.
213 % of control

Retrieve T/C measured for N#Cc1cn(C2OC(CO)C(O)C2O)c2ncnc(N)c12 (stereo not given) and print it.
171 % of control

Return the recorded T/C value; entry: CC[C@]1(O)C[C@H]2CN(CCc3c([nH]c4ccccc34)[C@@](C(=O)OC)(c3cc4c(cc3OC)N(C=O)[C@H]3[C@@](O)(C(=O)OC)[C@H](OC(C)=O)[C@]5(CC)C=CCN6CC[C@]43[C@@H]65)C2)C1
84 % of control

Item O=NNc1ccccn1 : provide T/C
176 % of control
